- Tested on: Escherichia coli TOP10;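 note: peptides expressed intracellularly from a pBAD plasmid library in pooled LB shake-flask culture, induced with 0.3% L-arabinose, DNA abundance read by NGS, three biological replicates, DESeq2 with apeglm shrinkage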
- EXPERIMENTAL PROTOCOL: shrunken log2 fold change of peptide-encoding DNA abundance (4.5 h post-induction vs induction); higher = less antimicrobial activity (less host growth inhibition)
- TEST SETTINGS: time post-induction: 4.5 h; library: site-saturation at positions 5, 18, 19, 20
READOUT LABEL: shrunken log2 fold change

The cases that follow already have their shrunken log2 fold change on record.
>>> print(df.to_string())
           sequence_record   result
0  RRIRTRPPRLPRPRPRPKRYPRP   -0.154
1  RRIRIRPPRLPRPRPRPERRPRP    0.264
2  RRIRTRPPRLPRPRPRPWQYPRP   0.0126
3  RRIRFRPPRLPRPRPRPNELPRP  -0.0316
4  RRIRARPPRLPRPRPRPKSMPRP   0.0164
5  RRIRARPPRLPRPRPRPTANPRP    0.401

I'm hoping you can list shrunken log2 fold change for every sequence here, please.
1. RRIRWRPPRLPRPRPRPEEFPRP
2. RRIRWRPPRLPRPRPRPKDRPRP

*A*
[0.023, 0.159]
